# experimental system: EP4 (Homo sapiens, UniProt P35408)
# Construct: expressed in transfected cells; membranes prepared by differential centrifugation
# Sequence (P35408 whole entry): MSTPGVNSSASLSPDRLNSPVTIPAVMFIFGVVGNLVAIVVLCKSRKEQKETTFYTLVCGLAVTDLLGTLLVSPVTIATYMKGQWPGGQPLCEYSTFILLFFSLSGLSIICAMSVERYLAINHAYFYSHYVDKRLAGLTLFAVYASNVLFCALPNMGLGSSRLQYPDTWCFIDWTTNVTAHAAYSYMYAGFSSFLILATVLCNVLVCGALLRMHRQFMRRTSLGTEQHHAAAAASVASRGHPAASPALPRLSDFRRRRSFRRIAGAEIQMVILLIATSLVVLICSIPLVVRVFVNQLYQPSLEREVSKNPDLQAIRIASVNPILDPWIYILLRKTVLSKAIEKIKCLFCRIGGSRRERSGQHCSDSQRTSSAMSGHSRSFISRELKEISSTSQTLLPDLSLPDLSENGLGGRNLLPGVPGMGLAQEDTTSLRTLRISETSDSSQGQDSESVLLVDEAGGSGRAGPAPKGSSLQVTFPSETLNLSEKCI
# experiment: Prostanoid receptor binding assay (radioligand displacement binding assay)
# assay context: column marked X when IC50 < 1; read-out: IC50 (nm) X < 1
# Method: Prostanoid receptor cDNAs corresponding to full length coding sequences are subcloned into the appropriate sites of mammalian expression vectors and transfected into HEK 293(ebna) cells. HEK 293(ebna) cells expressing the individual cDNAs are grown under selection and individual colonies are isolated after 2-3 weeks of growth using the cloning ring method and subsequently expanded into clonal cell lines. […]
pIC50: −log10 of the molar value.
Entries annotated with measured pIC50
readout kind: pIC50

>>> result("CN1CCc2c(n(-c3ccc(CCNC(=O)NS(=O)(=O)c4ccc(Cl)cc4)cc3)c3ccc(-c4cccnc4)cc23)C1=O")
"> 9.00"
>>> result("Cc1nnc(-c2ccc3c(c2)c2c(n3-c3ccc(CC4(NC(=O)NS(=O)(=O)c5ccc(Cl)cc5)CC4)cc3)C(=O)N(C)CC2)o1")
"> 9.00"
>>> result("CN1CCc2c(n(-c3ccc(CCNC(=O)NS(=O)(=O)c4ccc(Cl)cc4)cc3)c3ccc(-c4ccc(F)cc4)cc23)C1=O")
"> 9.00"
>>> result("CN1CCc2c(n(-c3ccc(CCNC(=O)NS(=O)(=O)c4ccc(Cl)cc4)cc3)c3cc(Cl)ccc23)C1=O")
"> 9.00"
>>> result("CN1CCc2c(n(-c3ccc(CCNC(=O)NS(=O)(=O)c4ccc(Cl)cc4)cc3)c3ccc(S(C)(=O)=O)cc23)C1=O")
"> 9.00"
>>> result("CN1CCc2c(n(-c3ccc(CCNC(=O)NS(=O)(=O)c4ccc(Cl)cc4)cc3)c3ccc(-c4ccc(S(C)(=O)=O)cc4)cc23)C1=O")
"> 9.00"
>>> result("CN1CCc2c(n(-c3ccc(CCNC(=O)NS(=O)(=O)c4ccc(Cl)cc4)cc3)c3cccc(Br)c23)C1=O")
"> 9.00"

Data origin: patent US8685999B2
